I'd appreciate it if you could supply MIC values for the items below.
- System: Enterococcus faecalis ATCC29212
- Construct: ATCC 29212
- EXPERIMENT_SUMMARY: microbe, parasite or virus in culture
- Set-up: CLSI agar dilution MIC, bacterial growth inhibition
Quick note: give the figure in µg/mL, leave out the unit.

Req: Please report MIC for the following compound: C=C[C@]1(C)C[C@@H](OC(=O)CSCCN(CC)CC)[C@]2(C)[C@H](C)CC[C@]3(CCC(=O)[C@H]32)[C@@H](C)[C@@H]1O
Resp: 64

Req: Please report MIC for the following compound: CC(=O)c1c(C)[n+]([O-])c2ccccc2[n+]1[O-]
Resp: 64

Req: Please report MIC for the following compound: CN(C)[C@@H]1C(O)=C(C(N)=O)C(=O)[C@@]2(O)C(O)=C3C(=O)c4c(O)cccc4[C@@](C)(O)[C@H]3C[C@@H]12
Resp: 8

Req: Please report MIC for the following compound: CN[C@@H]1[C@H](O[C@H]2[C@H](O[C@H]3[C@H](O)[C@@H](O)[C@H](N=C(N)N)[C@@H](O)[C@@H]3N=C(N)N)O[C@@H](C)[C@]2(O)C=O)O[C@@H](CO)[C@H](O)[C@H]1O
Resp: 128

Req: Please report MIC for the following compound: CC(C)(O/N=C(\C(=O)N[C@@H]1C(=O)N2C(C(=O)[O-])=C(C[n+]3ccccc3)CS[C@H]12)c1csc(N)n1)C(=O)O
Resp: 128

Req: Please report MIC for the following compound: C[C@H]1c2cccc(O)c2C(=O)C2=C(O)[C@]3(O)C(=O)C(C(N)=O)=C(O)[C@@H](N(C)C)[C@@H]3[C@@H](O)[C@@H]21
Resp: 4

Req: Please report MIC for the following compound: O=C(N[C@H](CO)[C@H](O)c1ccc([N+](=O)[O-])cc1)C(Cl)Cl
Resp: 4
